Source listed as patent US20250333501A1.

tested-on: T1, CLDN6 endogenously expressed by human cancer cell lines (ARK2, OVCA429) (human, UniProt P56747 1-220)
T1 construct: Untagged endogenous protein; also called Endogenous CLDN6+
T1 sequence: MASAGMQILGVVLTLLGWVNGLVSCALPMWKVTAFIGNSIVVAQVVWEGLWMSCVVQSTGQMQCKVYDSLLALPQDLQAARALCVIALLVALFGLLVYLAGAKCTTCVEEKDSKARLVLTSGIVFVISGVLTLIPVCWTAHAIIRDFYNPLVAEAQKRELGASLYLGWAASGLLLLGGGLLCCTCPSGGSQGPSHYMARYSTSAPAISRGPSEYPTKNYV
assay-info: FACS, 0.3 µg Ab, ARK2 cells
measured-endpoint: FACS fluorescence
// return a plain number; no unit text

binder | FACS fluorescence
AB1-4 (antibody, V domains shown, also called Humanized AB 1-4) VH: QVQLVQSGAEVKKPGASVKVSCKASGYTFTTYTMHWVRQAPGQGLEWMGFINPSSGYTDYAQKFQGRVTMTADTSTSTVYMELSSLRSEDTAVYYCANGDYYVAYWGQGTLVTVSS VL: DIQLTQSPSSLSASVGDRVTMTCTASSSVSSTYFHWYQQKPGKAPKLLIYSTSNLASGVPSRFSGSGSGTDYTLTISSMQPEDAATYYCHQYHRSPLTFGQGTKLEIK | 3640
AB11-3 (antibody, V domains shown, also called Humanized AB 11-3) VH: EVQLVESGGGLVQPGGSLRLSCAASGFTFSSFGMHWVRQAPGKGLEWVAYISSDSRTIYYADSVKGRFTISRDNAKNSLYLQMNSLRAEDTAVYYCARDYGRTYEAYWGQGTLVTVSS VL: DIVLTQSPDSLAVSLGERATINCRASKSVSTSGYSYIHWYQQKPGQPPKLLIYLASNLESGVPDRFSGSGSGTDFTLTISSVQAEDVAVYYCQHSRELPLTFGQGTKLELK | 1320

Turning now to a further record.
Data request: Give its FACS fluorescence value. Item: AB4-8 (antibody, V domains shown, Humanized; also called Humanized AB 4-8) VH: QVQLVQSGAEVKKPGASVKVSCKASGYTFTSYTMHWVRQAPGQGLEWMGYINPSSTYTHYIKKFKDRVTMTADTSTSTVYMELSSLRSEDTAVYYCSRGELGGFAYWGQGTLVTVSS VL: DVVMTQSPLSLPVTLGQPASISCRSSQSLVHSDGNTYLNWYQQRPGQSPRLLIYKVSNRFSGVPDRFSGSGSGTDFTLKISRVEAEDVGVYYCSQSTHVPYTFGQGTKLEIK
Data returned: 3120
